Measurement Description: NCI Yeast Anticancer Drug Screen. Data for the sgs1 mgt1 strain (AID 161);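 further: 0% = growth of cultures given vehicle only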
Test Parameters: S. cerevisiae sgs1 mgt1 strain, at 50.0 µM (retest, dose inferred, filed as 5.0)
Compounds without any hit were thinned out: in the full panel of roughly 79,000, 15% have a hit. Calls of active or inactive are those of the source. No stated cut-off is given here; in the data, active means growth inhibition above about 70%; inactive means the rest.
Hi there, use one of these labels in your reply, thanks! active, inactive

Use the examples below as a reference point.
{"Molecule": "Fc1ccc(NC(=S)SCc2ccco2)cc1", "Class Label": "inactive"}
{"Molecule": "CC(C)Cc1ccc(C(C)/C=C2\\CCC(CN3CCCCC3)C2=O)cc1 (configuration not stated)", "Class Label": "active"}
{"Molecule": "COc1ccc(Cc2coc3ccccc3c2=O)cc1OC", "Class Label": "inactive"}
{"Molecule": "CCOc1ccc2nc(Cl)sc2c1", "Class Label": "active"}

Query: How did this test come out for `CSc1nc(C)cc(SCc2ccc(Cl)cc2Cl)n1` ?
Reply: inactive

Query: Can you look up the reported call for CNc1ccc(C(=O)NC(CCCCNC(=O)OCc2ccccc2)C(=O)OC)cc1 (configuration not stated) for me?
Reply: inactive

Query: Each molecule tested received a call. Report the one for `O=C(CS)Nc1ccccc1` .
Reply: active

====

Readings of growth inhibition for the listed compounds
Measurement Description: NCI Yeast Anticancer Drug Screen. Data for the cln2 rad14 strain (AID 165);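 further: 0% = growth equal to vehicle treated cultures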
Test Parameters: S. cerevisiae cln2 rad14 strain, at 5.0 µM (retest, dose inferred, filed as 0.5), hits give high values
The panel holds about 79,000 compounds, 15% with a hit somewhere; the sample as a whole holds those more often. Active and inactive are the calls of the source. Rule as the data show it: active = growth inhibition above about 70%; inactive = the rest.

{"Compound": "CN1C(C)(C)CC(O)(C#N)CC1(C)C", "growth inhibition": "-6% (inactive)"}
{"Compound": "COc1cccc2c1C(=O)c1c(O)c3c(c(O)c1C2=O)C[C@@](O)(C(=O)CO)C[C@@H]3OC1CC(N)CC(C)O1 (stereo partly specified)", "growth inhibition": "63% (inactive)"}
{"Compound": "COC1=CC(=O)C(C#CCOCc2ccccc2)=CC1=O", "growth inhibition": "-8% (inactive)"}
{"Compound": "CN1C(=O)[C@@H]2N(N(C)C1=O)[C@@]1(Br)C(=O)N(C)C(=O)[C@@]21Br", "growth inhibition": "4% (inactive)"}
{"Compound": "c1ccc(Nc2nnc3nc(-c4ccccc4)c(-c4ccccc4)nn23)cc1", "growth inhibition": "-1% (inactive)"}
{"Compound": "O=C(O)C1OC(Oc2ccc3oc4ccccc4c(=O)c3c2)C(O)C(O)C1O (stereo unspecified)", "growth inhibition": "4% (inactive)"}
{"Compound": "CC1OC(C)C(O)C2=C1C(=O)c1ccccc1C2=O (stereo unspecified)", "growth inhibition": "2% (inactive)"}
{"Compound": "C1CCC2CC3(CCNCC3)CCC2C1 (stereo unspecified)", "growth inhibition": "12% (inactive)"}

Query: # lookup: growth inhibition of `CN1C(=O)c2cccc3cc([N+](=O)[O-])cc(c23)C1=O`
Reply: 17% (inactive)

Query: Consider the compound CN1CCN(C2=C(Cl)C3(OCCS3)C(F)(F)C2(F)F)CC1 (stereo unspecified) and give its measured growth inhibition.
Reply: 1% (inactive)

Query: Query (compound): `CS/C(=N\C(=S)N(C)C)N(c1ccccc1)c1nc(=[N+](C)C)ss1` ; field requested: growth inhibition
Reply: 1% (inactive)
